Assay: Example 4: dose response of FKBP constructs 160-255, Ec50, Ec90 and fold change (raw and normalized to mCherry)
Assay type: cell-based
Details: fold change during initial analysis
Experimental: Additional experiments were performed for constructs FKBP-160-292.

{"columns": ["MOLECULE", "FC (fold change)"],
 "data": [
  ["FKBP-216 (protein, Description of sequence: Construct Name: FKBP-216; Mutation(s): Q72R Q84E A117W DRD M54A E61Y K101W K135Y) HCPIKSRKGDVLHAHYTGKLYDGTEFDSSLPRNQPFVFSLGTGEVIKGWDQGLLGMCEGEWRKLVIPSELGYGERGWPPKIPGGATLVFEVELLYIER", 27.6],
  ["FKBP-160 (protein, Description of sequence: Construct Name: FKBP-160; Mutation(s): Q72R Q84E A117W V85R DRD M54A) HCPIKSRKGDVLHAHYTGKLEDGTEFDSSLPRNQPFVFSLGTGERIKGWDQGLLGMCEGEKRKLVIPSELGYGERGWPPKIPGGATLVFEVELLKIER", 25.7],
  ["FKBP-235 (protein, Description of sequence: Construct Name: FKBP-235; Mutation(s): Q72R Q84E A117W V85R DRD D90T M54A) HCPIKSRKGDVLHAHYTGKLEDGTEFDSSLPRNQPFVFSLGTGERIKGWTQGLLGMCEGEKRKLVIPSELGYGERGWPPKIPGGATLVFEVELLKIER", 23.5],
  ["FKBP-182 (protein, Description of sequence: Construct Name: FKBP-182; Mutation(s): Q72R Q84E A117W V85R DRD M54A M96W) HCPIKSRKGDVLHAHYTGKLEDGTEFDSSLPRNQPFVFSLGTGERIKGWDQGLLGWCEGEKRKLVIPSELGYGERGWPPKIPGGATLVFEVELLKIER", 64.9],
  ["FKBP-241 (protein, Description of sequence: Construct Name: FKBP-241; Mutation(s): Q72R Q84E A117W V85R DRD E61Y M54A) HCPIKSRKGDVLHAHYTGKLYDGTEFDSSLPRNQPFVFSLGTGERIKGWDQGLLGMCEGEKRKLVIPSELGYGERGWPPKIPGGATLVFEVELLKIER", 43.9],
  ["FKBP-186 (protein, Description of sequence: Construct Name: FKBP-186; Mutation(s): Q72R Q84E A117W V85R DRD M54A G116E) HCPIKSRKGDVLHAHYTGKLEDGTEFDSSLPRNQPFVFSLGTGERIKGWDQGLLGMCEGEKRKLVIPSELGYGEREWPPKIPGGATLVFEVELLKIER", 19.0]
]}

The measured values listed here are drawn from patent US20250186614A1.
